- TARGET_SYSTEM: T1, hTIGIT-hFc (human, UniProt Q495A1 22-141)
- T1 construct: also called antigen protein hTIGIT-hFc; human TIGIT recombinant protein carrying a human Fc tag; not shown: human Fc tag
- T1 sequence (looked up): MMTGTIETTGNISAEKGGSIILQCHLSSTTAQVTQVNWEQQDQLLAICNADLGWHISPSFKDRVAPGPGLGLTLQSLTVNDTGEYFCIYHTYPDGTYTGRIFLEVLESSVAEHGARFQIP
- TEST: FACS blocking on CHO-hCD112 cells; span of the fitted curve, unit from the y axis
QUANTITY_MEASURED: Span (MFI-APC)
I only need the number, in MFI-APC, no unit after it.

INPUT: Tell me the measured Span of Tigit-5 mouse monoclonal antibody (antibody, V domains shown, Mouse monoclonal antibody from hybridoma) VH: QVQLQQPGAELVRPGASVKLSCKASGYSFTSYWMNWVKQRPGQGLEWIGMIRPSDSETRLNQMFKDKATLTVDKSSSTAYMQLSSPTSDDSAVYYCAGIHDYGHGAYWGQGTLVTVSA VL: DIQMIQSPASLSVSVGETVTITCRASENIYSNLAWYQQKQGKSPQLLVYAASHLPDGVPSRFSGSGSGTQYSLKINSLQSEDFGSYYCQHFWGTPRTFGGGTKLEIKR , please.
OUTPUT: 212

INPUT: Fill in: Span of 3Tigit-29 mouse monoclonal antibody (antibody, V domains shown, Mouse monoclonal antibody from hybridoma) VH: EVQLQQSGPELVKPGASVKISCKASGYTFTDYNMHWVKQSLGKSLEWIGYVNSFNGNTGYSQKFKSKVTLTVDRSSRTAYMDLRSLTSEDSAVFYCARSSRGGFAYWGQGTLVTVSA VL: QIVLTQSPAIMSASPGEKVTMTCSASSSVSYMHWYQQKSGTSPKRWIYDTSKLASGVPARFSGSVSGTSYSLTISSMEAEDAATYYCQQWSSNSLTFGAGTKLELKR is ___
OUTPUT: 327

INPUT: Look at this binder and give its reported Span. 3Tigit-16 mouse monoclonal antibody (antibody, V domains shown, Mouse monoclonal antibody from hybridoma) VH: EVQLQQSGPELVKPGASVKMSCKASGFTFTDYFMDWVKQSRGASFEWIGRLNPNNGRTSYNQKFKGKATLTVDKSSSTAYMELNSLTSEDSAVYYCARGDLGRWYFDVWGAGTTVTVSS VL: QIVLTQSPAIMSASPGEKVTMTCSASSSVSYMHWYQQKSGTSPKRWIYDTSKLASGVPTRFSGSGSGTSYSLTISSMEAEDAASYFCQQWSSNSLTFGAGTKLELKR
OUTPUT: 215

We next turn to a different binder, shown below.
INPUT: Endpoint output: Span of 3Tigit-12 mouse monoclonal antibody (antibody, V domains shown, Mouse monoclonal antibody from hybridoma) VH: QVQLQQSGAELVRPGTSVKMSCKAAGYTFTNYWIGWVKQRPGHGLEWIGDIYPGGGYTNYDEKFKGKATLTADTSSRTAYMQLSSLTSEDSAIYHCVNGGYGSTYGYFDVWGAGTTVTVSS VL: DIVMSQSPSSLPVSVGEKVTMSCKSSQSLLFSSDQKNYLAWYQQKPGQSPKLLIYWASTRESGVPDRLTGSGSGTDFTLTISSVKAEDLAVYYCQQYHKYPFTFGGGTKLEIKR . Value?
OUTPUT: 278
